test system: Rh18 complex spheroid viability, percent test/control; assay: Anticancer human tumor Rh18 cell line growth inhibition [Asc]; conditions: second compound 1 µM; first compound 10 µM; stronger effect = lower value;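 further: spheroids exposed to compound for 7 days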;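 on viability, T/C: 100% = DMSO vehicle control wells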
Give measured viability, T/C for each item. Keep answers brief.
Report the value in % with no unit label.

Data request: I would be grateful if you could share the reported viability, T/C for O=C(c1cc(Cc2n[nH]c(=O)c3ccccc23)ccc1F)N1CCN(C(=O)C2CC2)CC1 + CNC(C)C(=O)NC1CN(S(=O)(=O)c2cccc(S(=O)(=O)N3CCC4CCC(C(=O)NC(c5ccccc5)c5ccccc5)N4C(=O)C(NC(=O)C(C)NC)C3)c2)CCC2CCC(C(=O)NC(c3ccccc3)c3ccccc3)N2C1=O .
Data returned: 10.9

Data request: I would be grateful if you could share the reported viability, T/C for C=C(F)C(=O)N1CCN(c2nc(OCC3CCCN3C)nc3c2CCN(c2cccc4cccc(Cl)c24)C3)CC1CC#N (stereo not drawn) + CNC(C)C(=O)NC1CN(S(=O)(=O)c2cccc(S(=O)(=O)N3CCC4CCC(C(=O)NC(c5ccccc5)c5ccccc5)N4C(=O)C(NC(=O)C(C)NC)C3)c2)CCC2CCC(C(=O)NC(c3ccccc3)c3ccccc3)N2C1=O .
Data returned: 0.2

Data request: I would be grateful if you could share the reported viability, T/C for C#Cc1c(F)ccc2cc(O)cc(-c3ncc4c(N5CC6CCC(C5)N6)nc(OCC56CCCN5CC(F)C6)nc4c3F)c12 (stereo not drawn) + Cc1c(S(C)(=O)=O)c(-c2cc(F)cc(N3CCN(c4ccc(NS(=O)(=O)c5ccc(NC(CCN6CCC(C(=O)OCCCP(=O)(O)O)CC6)CSc6ccccc6)c(S(=O)(=O)C(F)(F)F)c5)cc4)CC3)c2)c(-c2ccc(Cl)cc2)n1C(C)C .
Data returned: 8.2

====

test system: Rh18 complex spheroid viability, percent test/control; assay: Anticancer human tumor Rh18 cell line growth inhibition [Asc]; settings: curve of first compound; second compound 0.1 µM;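 further: spheroids exposed to compound for 7 days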
pIC50: −log10 of the molar value.
Give measured pIC50 for each item. Keep answers brief.

Data request: I would be grateful if you could share the reported pIC50 for CCN1C(C(=O)NC23CCC(C(=O)O)(CC2)CC3)C(c2cccc(Cl)c2F)C2(C(=O)Nc3cc(Cl)ccc32)C12CCCCC2 (configuration not stated) + Cc1c(S(C)(=O)=O)c(-c2cc(F)cc(N3CCN(c4ccc(NS(=O)(=O)c5ccc(NC(CCN6CCC(C(=O)OCCCP(=O)(O)O)CC6)CSc6ccccc6)c(S(=O)(=O)C(F)(F)F)c5)cc4)CC3)c2)c(-c2ccc(Cl)cc2)n1C(C)C .
Data returned: > 8.02

Data request: I would be grateful if you could share the reported pIC50 for COc1c(OCCCN2CCOCC2)ccc2c3n(c(=NC(=O)c4cnc(N)nc4)nc12)CCN3 + CNC(C)C(=O)NC1CN(S(=O)(=O)c2cccc(S(=O)(=O)N3CCC4CCC(C(=O)NC(c5ccccc5)c5ccccc5)N4C(=O)C(NC(=O)C(C)NC)C3)c2)CCC2CCC(C(=O)NC(c3ccccc3)c3ccccc3)N2C1=O .
Data returned: > 8.50

Data request: I would be grateful if you could share the reported pIC50 for C#Cc1c(F)ccc2cc(O)cc(-c3ncc4c(N5CC6CCC(C5)N6)nc(OCC56CCCN5CC(F)C6)nc4c3F)c12 (configuration not stated) + Cc1c(S(C)(=O)=O)c(-c2cc(F)cc(N3CCN(c4ccc(NS(=O)(=O)c5ccc(NC(CCN6CCC(C(=O)OCCCP(=O)(O)O)CC6)CSc6ccccc6)c(S(=O)(=O)C(F)(F)F)c5)cc4)CC3)c2)c(-c2ccc(Cl)cc2)n1C(C)C .
Data returned: > 7.50

Data request: I would be grateful if you could share the reported pIC50 for CCN1C(C(=O)NC23CCC(C(=O)O)(CC2)CC3)C(c2cccc(Cl)c2F)C2(C(=O)Nc3cc(Cl)ccc32)C12CCCCC2 (configuration not stated) + CNC(C)C(=O)NC1CN(S(=O)(=O)c2cccc(S(=O)(=O)N3CCC4CCC(C(=O)NC(c5ccccc5)c5ccccc5)N4C(=O)C(NC(=O)C(C)NC)C3)c2)CCC2CCC(C(=O)NC(c3ccccc3)c3ccccc3)N2C1=O .
Data returned: > 8.02

Data request: I would be grateful if you could share the reported pIC50 for Cn1ncnc1[C@H]1c2n[nH]c(=O)c3cc(F)cc(c23)N[C@@H]1c1ccc(F)cc1 + Cc1c(S(C)(=O)=O)c(-c2cc(F)cc(N3CCN(c4ccc(NS(=O)(=O)c5ccc(NC(CCN6CCC(C(=O)OCCCP(=O)(O)O)CC6)CSc6ccccc6)c(S(=O)(=O)C(F)(F)F)c5)cc4)CC3)c2)c(-c2ccc(Cl)cc2)n1C(C)C .
Data returned: > 9.50

Data request: I would be grateful if you could share the reported pIC50 for CNC(C)C(=O)NC1CN(S(=O)(=O)c2cccc(S(=O)(=O)N3CCC4CCC(C(=O)NC(c5ccccc5)c5ccccc5)N4C(=O)C(NC(=O)C(C)NC)C3)c2)CCC2CCC(C(=O)NC(c3ccccc3)c3ccccc3)N2C1=O (configuration not stated) + Cc1c(S(C)(=O)=O)c(-c2cc(F)cc(N3CCN(c4ccc(NS(=O)(=O)c5ccc(NC(CCN6CCC(C(=O)OCCCP(=O)(O)O)CC6)CSc6ccccc6)c(S(=O)(=O)C(F)(F)F)c5)cc4)CC3)c2)c(-c2ccc(Cl)cc2)n1C(C)C .
Data returned: > 8.50

Data request: I would be grateful if you could share the reported pIC50 for COc1c(OCCCN2CCOCC2)ccc2c3n(c(=NC(=O)c4cnc(N)nc4)nc12)CCN3 + Cc1c(S(C)(=O)=O)c(-c2cc(F)cc(N3CCN(c4ccc(NS(=O)(=O)c5ccc(NC(CCN6CCC(C(=O)OCCCP(=O)(O)O)CC6)CSc6ccccc6)c(S(=O)(=O)C(F)(F)F)c5)cc4)CC3)c2)c(-c2ccc(Cl)cc2)n1C(C)C .
Data returned: > 8.50

Data request: I would be grateful if you could share the reported pIC50 for Cn1ncnc1[C@H]1c2n[nH]c(=O)c3cc(F)cc(c23)N[C@@H]1c1ccc(F)cc1 + CNC(C)C(=O)NC1CN(S(=O)(=O)c2cccc(S(=O)(=O)N3CCC4CCC(C(=O)NC(c5ccccc5)c5ccccc5)N4C(=O)C(NC(=O)C(C)NC)C3)c2)CCC2CCC(C(=O)NC(c3ccccc3)c3ccccc3)N2C1=O .
Data returned: > 9.50

Data request: I would be grateful if you could share the reported pIC50 for C#Cc1c(F)ccc2cc(O)cc(-c3ncc4c(N5CC6CCC(C5)N6)nc(OCC56CCCN5CC(F)C6)nc4c3F)c12 (configuration not stated) + CNC(C)C(=O)NC1CN(S(=O)(=O)c2cccc(S(=O)(=O)N3CCC4CCC(C(=O)NC(c5ccccc5)c5ccccc5)N4C(=O)C(NC(=O)C(C)NC)C3)c2)CCC2CCC(C(=O)NC(c3ccccc3)c3ccccc3)N2C1=O .
Data returned: > 7.50

Data request: I would be grateful if you could share the reported pIC50 for NC(=O)C(=Cn1cnc(-c2cc(C(F)(F)F)cc(C(F)(F)F)c2)n1)c1cncnc1 + Cc1c(S(C)(=O)=O)c(-c2cc(F)cc(N3CCN(c4ccc(NS(=O)(=O)c5ccc(NC(CCN6CCC(C(=O)OCCCP(=O)(O)O)CC6)CSc6ccccc6)c(S(=O)(=O)C(F)(F)F)c5)cc4)CC3)c2)c(-c2ccc(Cl)cc2)n1C(C)C .
Data returned: > 9.02

Data request: I would be grateful if you could share the reported pIC50 for C=CC(=O)N1CCN(c2nc(=O)n(-c3c(C)ccnc3C(C)C)c3nc(-c4c(O)cccc4F)c(F)cc23)C(C)C1 (configuration not stated) + CNC(C)C(=O)NC1CN(S(=O)(=O)c2cccc(S(=O)(=O)N3CCC4CCC(C(=O)NC(c5ccccc5)c5ccccc5)N4C(=O)C(NC(=O)C(C)NC)C3)c2)CCC2CCC(C(=O)NC(c3ccccc3)c3ccccc3)N2C1=O .
Data returned: 7.21

Data request: I would be grateful if you could share the reported pIC50 for O=C(c1ccc(F)c(F)c1Nc1ccc(I)cc1F)N1CC(O)([C@@H]2CCCCN2)C1 + CNC(C)C(=O)NC1CN(S(=O)(=O)c2cccc(S(=O)(=O)N3CCC4CCC(C(=O)NC(c5ccccc5)c5ccccc5)N4C(=O)C(NC(=O)C(C)NC)C3)c2)CCC2CCC(C(=O)NC(c3ccccc3)c3ccccc3)N2C1=O .
Data returned: > 8.50

====

tested on: Rh18 complex spheroid viability, percent test/control; assay: Anticancer human tumor Rh18 cell line growth inhibition [Asc]; details: second compound 0.316 µM; first compound 0.01 µM; stronger effect = lower value;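 further: spheroids exposed to compound for 7 days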;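 on viability, T/C: 100% = DMSO vehicle control wells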
MEASURED QUANTITY: viability, T/C (%)
Report the value in % with no unit label.

Data request: I would be grateful if you could share the reported viability, T/C for Cn1ncnc1[C@H]1c2n[nH]c(=O)c3cc(F)cc(c23)N[C@@H]1c1ccc(F)cc1 + CNC(C)C(=O)NC1CN(S(=O)(=O)c2cccc(S(=O)(=O)N3CCC4CCC(C(=O)NC(c5ccccc5)c5ccccc5)N4C(=O)C(NC(=O)C(C)NC)C3)c2)CCC2CCC(C(=O)NC(c3ccccc3)c3ccccc3)N2C1=O .
Data returned: 19.6

Data request: I would be grateful if you could share the reported viability, T/C for COc1c(OCCCN2CCOCC2)ccc2c3n(c(=NC(=O)c4cnc(N)nc4)nc12)CCN3 + Cc1c(S(C)(=O)=O)c(-c2cc(F)cc(N3CCN(c4ccc(NS(=O)(=O)c5ccc(NC(CCN6CCC(C(=O)OCCCP(=O)(O)O)CC6)CSc6ccccc6)c(S(=O)(=O)C(F)(F)F)c5)cc4)CC3)c2)c(-c2ccc(Cl)cc2)n1C(C)C .
Data returned: 8.34

Data request: I would be grateful if you could share the reported viability, T/C for COc1c(OCCCN2CCOCC2)ccc2c3n(c(=NC(=O)c4cnc(N)nc4)nc12)CCN3 + CNC(C)C(=O)NC1CN(S(=O)(=O)c2cccc(S(=O)(=O)N3CCC4CCC(C(=O)NC(c5ccccc5)c5ccccc5)N4C(=O)C(NC(=O)C(C)NC)C3)c2)CCC2CCC(C(=O)NC(c3ccccc3)c3ccccc3)N2C1=O .
Data returned: 22.4
